I'd appreciate it if you could supply inhibition at 10 µM values for the items below.
# system-name: hFASN enzyme (full length) (Homo sapiens, UniProt P49327)
# Construct: 10 μL hFASN enzyme (full length, 300 ng, purified in house); made in house
# Sequence (P49327 whole entry): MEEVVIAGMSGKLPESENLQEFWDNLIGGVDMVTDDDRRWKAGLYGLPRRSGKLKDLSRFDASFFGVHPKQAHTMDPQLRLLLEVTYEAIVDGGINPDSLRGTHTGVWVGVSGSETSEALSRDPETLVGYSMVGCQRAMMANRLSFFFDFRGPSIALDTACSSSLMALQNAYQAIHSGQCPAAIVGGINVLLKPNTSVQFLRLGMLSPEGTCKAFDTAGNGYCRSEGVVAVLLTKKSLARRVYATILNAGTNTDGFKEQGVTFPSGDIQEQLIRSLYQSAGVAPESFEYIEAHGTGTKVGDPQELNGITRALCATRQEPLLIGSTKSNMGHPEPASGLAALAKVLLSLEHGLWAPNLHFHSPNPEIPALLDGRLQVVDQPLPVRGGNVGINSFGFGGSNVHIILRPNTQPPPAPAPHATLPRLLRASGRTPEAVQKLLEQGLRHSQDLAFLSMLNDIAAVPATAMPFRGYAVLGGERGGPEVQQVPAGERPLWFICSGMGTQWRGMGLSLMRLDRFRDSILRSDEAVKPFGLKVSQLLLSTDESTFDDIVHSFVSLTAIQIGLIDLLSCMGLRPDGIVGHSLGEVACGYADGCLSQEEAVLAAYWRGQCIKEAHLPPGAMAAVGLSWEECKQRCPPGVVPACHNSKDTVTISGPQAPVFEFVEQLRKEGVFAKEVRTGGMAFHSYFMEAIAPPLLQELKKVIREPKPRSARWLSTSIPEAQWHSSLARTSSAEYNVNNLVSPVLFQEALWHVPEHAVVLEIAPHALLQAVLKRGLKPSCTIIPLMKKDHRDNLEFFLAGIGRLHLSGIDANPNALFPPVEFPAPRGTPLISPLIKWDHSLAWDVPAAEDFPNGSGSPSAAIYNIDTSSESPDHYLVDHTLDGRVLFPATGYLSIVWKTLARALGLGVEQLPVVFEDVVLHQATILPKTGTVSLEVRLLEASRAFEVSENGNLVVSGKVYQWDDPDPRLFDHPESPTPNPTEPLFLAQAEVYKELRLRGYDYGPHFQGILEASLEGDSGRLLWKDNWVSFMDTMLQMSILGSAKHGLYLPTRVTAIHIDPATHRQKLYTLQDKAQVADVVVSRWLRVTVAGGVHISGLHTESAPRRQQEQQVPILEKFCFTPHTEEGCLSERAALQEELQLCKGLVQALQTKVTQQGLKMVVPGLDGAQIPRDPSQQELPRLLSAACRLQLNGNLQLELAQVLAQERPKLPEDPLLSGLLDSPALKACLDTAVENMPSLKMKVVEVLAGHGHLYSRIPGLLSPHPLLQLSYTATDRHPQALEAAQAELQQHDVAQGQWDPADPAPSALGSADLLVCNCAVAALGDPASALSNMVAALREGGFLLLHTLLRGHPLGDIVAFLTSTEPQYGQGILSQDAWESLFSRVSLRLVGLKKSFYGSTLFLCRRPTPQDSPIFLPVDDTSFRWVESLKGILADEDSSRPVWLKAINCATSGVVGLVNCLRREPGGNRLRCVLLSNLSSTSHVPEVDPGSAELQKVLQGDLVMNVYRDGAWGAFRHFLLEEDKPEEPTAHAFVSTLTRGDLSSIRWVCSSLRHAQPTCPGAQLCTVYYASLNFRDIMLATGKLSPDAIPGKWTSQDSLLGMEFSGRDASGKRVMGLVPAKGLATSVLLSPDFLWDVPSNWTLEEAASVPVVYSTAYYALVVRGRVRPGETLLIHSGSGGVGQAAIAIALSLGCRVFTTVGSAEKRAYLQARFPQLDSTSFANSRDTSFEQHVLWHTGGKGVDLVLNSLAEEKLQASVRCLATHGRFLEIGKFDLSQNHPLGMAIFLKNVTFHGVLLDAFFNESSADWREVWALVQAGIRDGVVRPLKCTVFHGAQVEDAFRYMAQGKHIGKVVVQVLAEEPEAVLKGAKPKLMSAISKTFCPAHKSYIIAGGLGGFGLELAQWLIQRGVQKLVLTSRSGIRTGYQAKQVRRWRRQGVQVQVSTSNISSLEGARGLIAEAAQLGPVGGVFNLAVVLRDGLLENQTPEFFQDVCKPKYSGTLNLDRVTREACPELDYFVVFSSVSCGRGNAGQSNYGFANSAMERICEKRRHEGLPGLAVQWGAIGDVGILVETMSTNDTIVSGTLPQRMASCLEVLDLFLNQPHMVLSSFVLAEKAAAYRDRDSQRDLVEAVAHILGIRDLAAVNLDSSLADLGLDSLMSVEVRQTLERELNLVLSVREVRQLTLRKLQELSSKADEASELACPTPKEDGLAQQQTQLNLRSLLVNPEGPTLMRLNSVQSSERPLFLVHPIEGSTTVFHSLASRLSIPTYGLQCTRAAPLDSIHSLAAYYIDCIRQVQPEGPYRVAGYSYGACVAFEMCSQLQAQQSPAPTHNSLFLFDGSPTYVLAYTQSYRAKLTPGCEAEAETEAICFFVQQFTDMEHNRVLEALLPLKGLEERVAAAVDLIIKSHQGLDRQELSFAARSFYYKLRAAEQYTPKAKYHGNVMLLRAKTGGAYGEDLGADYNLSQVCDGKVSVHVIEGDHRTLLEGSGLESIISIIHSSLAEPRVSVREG
# assay-method-text: Fatty Acid Synthase (FASN) inhibition scintillation proximity assay
# Format: biochemical
# measurement-conditions: read-out: Human FASN % inhibition @ 10 μM, 10 μM test compound
The reply must contain the numeric value and, after it, the unit.

Below, 3 compounds whose answers are already recorded.
- compound: "Nc1nccc2cc(-c3ccc(C4=NC5(CC5)C(=O)N4C[C@@H]4CCN(C(=O)C5CC5)C4)cc3)ccc12"
  system-name: "hFASN enzyme (full length) (Homo sapiens, UniProt P49327)"
  inhibition at 10 µM: "97%"
- compound: "NC(=O)CN1CC[C@@H](CN2C(=O)C3(CCN(Cc4ccccc4)CC3)N=C2c2ccc(-c3ccc4occc4c3)cc2)C1"
  system-name: "hFASN enzyme (full length) (Homo sapiens, UniProt P49327)"
  inhibition at 10 µM: "24.4%"
- compound: "N#CCc1c[nH]c2ccc(-c3ccc(C4=NC5(CC5)C(=O)N4C[C@@H]4CCN(C(=O)C5CC5)C4)cc3)cc12"
  system-name: "hFASN enzyme (full length) (Homo sapiens, UniProt P49327)"
  inhibition at 10 µM: "101%"

Give inhibition at 10 µM for each of the items listed below.
1. O=C(C1CC1)N1CC(CN2C(=O)C3(CC3)N=C2c2ccc(-c3ccc(Br)cn3)cc2)C1
2. Cc1cc(-c2ccc3cc(C#N)ccc3c2)ccc1C1=NC2(CC2)C(=O)N1CC1CN(C(=O)C2CCO2)C1 (stereo not drawn)
3. O=C(C1CC1)N1CC[C@@H](CN2C(=O)C3(CC3)N=C2c2ccc(-c3ccc4cncnc4c3)cc2F)C1

Reply |
["73%", "103%", "94%"]

====

# system-name: hFASN enzyme (full length) (Homo sapiens, UniProt P49327)
# Construct: 10 μL hFASN enzyme (full length, 300 ng, purified in house); made in house
# assay-method-text: Fatty Acid Synthase (FASN) inhibition scintillation proximity assay
# Assay type: biochemical
# measurement-conditions: read-out: Human FASN pIC50 (converted)
reported-endpoint: IC50

- molecule: "O=C(C1CC1)N1CC(CN2C(=O)C3(CC3)N=C2c2ccc(-c3cnc4cccnc4c3)cc2)C1 [compound 801]"
  IC50: "> 10 µM"

Give IC50 for each of the items listed below.
1. CC(=O)N1CCC2(CC1)N=C(c1ccc(-c3ccc4c(c3)CCN(C(C)=O)C4)cc1)N(C[C@@H]1CCN(C(=O)C3CC3)C1)C2=O [compound 160]
2. Cn1ncc2cc(-c3ccc(C4=NC5(CCOCC5)C(=O)N4C[C@@H]4CCN(S(C)(=O)=O)C4)cc3)ccc21 [compound 926]

Reply |
1. > 10 µM
2. > 10 µM

====

# system-name: hFASN enzyme (full length) (Homo sapiens, UniProt P49327)
# Construct: 10 μL hFASN enzyme (full length, 300 ng, purified in house); made in house
# assay-method-text: Fatty Acid Synthase (FASN) inhibition scintillation proximity assay
# Assay type: biochemical
# measurement-conditions: read-out: Human FASN pIC50 (converted)
reported-endpoint: IC50

Below, 5 molecules whose answers are already recorded.
- smiles-text: "CS(=O)(=O)c1cccc(-c2ccc(C3=NC4(CC4)C(=O)N3CC3CN(C(=O)C4CC4)C3)c(F)c2)c1"
  IC50: "> 10 µM"
- smiles-text: "COc1ccccc1-c1ccc(C2=NC3(CC3)C(=O)N2CC2CCN(C(=O)C3CC3)CC2)cc1"
  IC50: "> 10 µM"
- smiles-text: "O=C(N1CC[C@@H](CN2C(=O)C3(CCCC3)N=C2c2ccc(-c3ccc4occc4c3)cc2)C1)C1(O)CC1"
  IC50: "0.0363 µM"
- smiles-text: "O=C(C1CC1)N1CC[C@@H](CN2C(=O)C3(CC3)N=C2c2cnc(-c3ccc4occc4c3)cn2)C1"
  IC50: "9.55 µM"
- smiles-text: "CC(C)C(=O)N1CCC2(CC1)N=C(c1ccc(-c3ccc4occc4c3)cc1)N(C[C@@H]1CCN(C(=O)C3CC3)C1)C2=O"
  IC50: "0.129 µM"

Give IC50 for each of the items listed below.
1. Cc1cc(-c2ccc3c(cnn3C)c2)ccc1C1=NC2(CC2)C(=O)N1CC1CN(C(=O)C2(CO)CC2)C1
2. Cc1cc(-c2ccc3ccc(Cl)nc3c2)ccc1C1=NC2(CC2)C(=O)N1CC1CN(C(=O)C2(C)CC2)C1
3. Cc1cc(-c2ccc3c(cnn3C)c2)ccc1C1=NC2(CC2)C(=O)N1CC1CN(C(=O)c2nccs2)C1
4. COc1cccc2cc(-c3ccc(C4=NC5(CC5)C(=O)N4CC4CN(C(=O)C5CC5)C4)c(F)c3)ccc12

Reply |
0.155 µM
0.245 µM
~4.68 µM
0.219 µM

Give IC50 for each of the items listed below.
1. O=C(C1CC1)N1CCC(CN2C(=O)C3(CC3)N=C2c2ccc(-c3ccc(C(F)(F)F)cc3)cc2)CC1
2. O=C(C1CC1)N1CC[C@@H](CN2C(=O)C3(CC3)N=C2c2ccc(-c3ccc(-c4ccncc4)cc3)cc2)C1
3. O=C(C1CC1)N1CC(CN2C(=O)C3(CC3)N=C2c2ccc(-c3ccc4nn(CC5CC5)cc4c3)cc2F)C1
4. O=C(C1CC1)N1CC[C@@H](CN2C(=O)C3(CC3)N=C2c2ccc(-c3ccc4occc4c3)s2)C1

Reply |
1. > 10 µM
2. 0.0234 µM
3. 2.09 µM
4. 3.31 µM

====

# system-name: hFASN enzyme (full length) (Homo sapiens, UniProt P49327)
# Construct: 10 μL hFASN enzyme (full length, 300 ng, purified in house); made in house
# assay-method-text: Fatty Acid Synthase (FASN) inhibition scintillation proximity assay
# Type: biochemical
# measurement-conditions: read-out: Human FASN % inhibition @ 10 μM, 10 μM test compound
# Protocol: In this assay, inhibition of FASN activity is measured using ^3H-acetyl-CoA and malonyl-CoA as substrates. ^3H-Acetyl CoA is converted to ^3H-palmitate through a series of reactions by the FASN protein, which contains 7 functional domains and carries out 7 enzymatic reactions to ultimately produce ^3H-palmitate. The assay principle is based upon the fact that ^3H-acetyl-CoA is hydrophilic and the end product, ^3H-palmitate is hydrophobic. […]
reported-endpoint: inhibition at 10 µM (%)
Numbers only, in %.

Below, 5 compounds whose answers are already recorded.
- compound: "O=C(C1CC1)N1CC[C@@H](CN2C(=O)C3(CCCC3)N=C2c2ccc(-c3ccc4occc4c3)cc2)C1"
  inhibition at 10 µM, %: 109
- compound: "Cc1cc(-c2ccc3cc(F)ccc3c2)ccc1C1=NC2(CC2)C(=O)N1CC1CN(C(=O)C2CCO2)C1 (centres unmarked)"
  inhibition at 10 µM, %: 104
- compound: "Cc1cc2cc(-c3ccc(C4=NC5(CC5)C(=O)N4CC4CN(C(=O)C5CC5)C4)cc3C)ccc2o1"
  inhibition at 10 µM, %: 59.5
- compound: "Cn1cc(-c2ccc(-c3ccc(C4=NC5(CC5)C(=O)N4C[C@@H]4CCN(C(=O)C5CC5)C4)c(F)c3)cc2)cn1"
  inhibition at 10 µM, %: 101
- compound: "Cn1ncc2cc(-c3ccc(C4=NC5(CC5)C(=O)N4CC4CN(C(=O)C5CC5)C4)cc3)cnc21"
  inhibition at 10 µM, %: 58

Give inhibition at 10 µM for each of the items listed below.
1. O=C([C@H]1CCCO1)N1CC(CN2C(=O)C3(CCOC3)N=C2c2ccc(-c3ccc4cccnc4c3)cc2)C1 (some centres unmarked)
2. O=C(C1CC1)N1CC(CN2C(=O)C3(CC3)N=C2c2ccc(-c3cccc(S(=O)(=O)C4CC4)c3)cc2F)C1
3. COC(=O)N1CC2(C1)N=C(c1ccc(-c3ccc4cccnc4c3)cc1)N(C[C@@H]1CCN(C(=O)C(F)(F)F)C1)C2=O

Reply |
1. 88
2. 77
3. 63

====

I'd appreciate it if you could supply IC50 values for the items below.
# system-name: hFASN enzyme (full length) (Homo sapiens)
# Construct: 10 μL hFASN enzyme (full length, 300 ng, purified in house); made in house
# assay-method-text: Fatty Acid Synthase (FASN) inhibition scintillation proximity assay
# Type: biochemical
# measurement-conditions: read-out: Human FASN pIC50 (converted)
# Experimental: In this assay, inhibition of FASN activity is measured using ^3H-acetyl-CoA and malonyl-CoA as substrates. ^3H-Acetyl CoA is converted to ^3H-palmitate through a series of reactions by the FASN protein, which contains 7 functional domains and carries out 7 enzymatic reactions to ultimately produce ^3H-palmitate. The assay principle is based upon the fact that ^3H-acetyl-CoA is hydrophilic and the end product, ^3H-palmitate is hydrophobic. […]

Below, 5 molecules whose answers are already recorded.
- molecule: "COC(=O)N1CC[C@@H](CN2C(=O)C3(CCOC3)N=C2c2ccc(-c3ccc4occc4c3)cc2)C1 (stereo partly drawn)"
  IC50: "> 10000 nM"
- molecule: "COC(=O)N1CC2(C1)N=C(c1ccc(-c3ccc(-c4cnn(C)c4)cc3)cc1)N(C[C@@H]1CCN(C(=O)C(F)(F)F)C1)C2=O"
  IC50: "> 10000 nM"
- molecule: "O=C(C1CC1)N1CC[C@@H](CN2C(=O)C3(CC3)N=C2c2ccc(-c3ccc4[nH]ccc4c3)cn2)C1"
  IC50: "64.6 nM"
- molecule: "COC(=O)N1CC[C@@H](CN2C(=O)C3(CN(C(=O)OC)C3)N=C2c2ccc(-c3ccc4c(cnn4C)c3)cc2)C1"
  IC50: "> 10000 nM"
- molecule: "CC(C)N1CCC2(CC1)N=C(c1ccc(-c3ccc4[nH]ccc4c3)cc1)N(CC1CN(C(=O)C3CC3)C1)C2=O"
  IC50: "603 nM"

The record that follows has no IC50 shown yet.
Ask | May I ask what IC50 has been recorded for O=C(C1CC1)N1CC[C@@H](CN2C(=O)C3(CCCC3)N=C2c2ccc(-c3ccc(Cl)cc3)cc2)C1 ?
Reply | 214 nM
